System: MALME-3M melanoma
test description: NCI-60 one-dose screen, 48 h (100 = growth as untreated, 0 = no growth, -100 = all killed)
conditions: 10 µM unless noted
This is part of a sample that, as a whole, favours compounds with a hit. Of some 83,000 tested, about 20% had one in any assay.
Label not fulfilled if growth falls below 80%; label fulfilled in every other case.

Solved cases (5 shown):
N#CC1=C(N)Oc2c(sc3c(Br)cccc23)C1c1ccc(F)cc1 (stereo not drawn); not fulfilled
CCn1cc(C(=O)N/N=C/c2cccs2)c(=O)c2cc(F)c(N3CCNC(C)C3)c(F)c21 (stereo not drawn); not fulfilled
CC1(C)CC[C@]2(C(=O)O)CC[C@]3(C)C(=CC[C@@H]4[C@@]5(C)C/C(=C/O)C(=O)C(C)(C)[C@@H]5CC[C@]43C)[C@@H]2C1; fulfilled
CCn1c(SCC(=O)c2ccc(Br)cc2)nnc1-c1ccncc1; fulfilled
CC1=C(CCC(C)N(C)Cc2ccc(OCCCN3CCCC3)cc2)C(C)(C)CCC1 (stereo not drawn); not fulfilled

Decide: is the reported value of growth for `C=C1C(=O)O[C@H]2[C@H]1CC/C(COC(=O)CSCCSCC(=O)OC/C1=C/CC[C@@]3(C)O[C@H]3[C@H]3OC(=O)C(=C)[C@@H]3CC1)=C\CC[C@@]1(C)O[C@@H]21` equal to or greater than 80%? not fulfilled

Decide: is the reported value of growth for `COc1ccc(-c2cn(-c3cc(OC)c(OC)c(OC)c3)c(=O)n2C(C)=O)cc1` equal to or greater than 80%? fulfilled
